Entry source: ChEMBL document CHEMBL1201862

System: M19-MEL
Experiment: NCI tumour cell line growth inhibition, 48 h
Calls of active or inactive are those of the source. Rule as the data show it: active = GI50 up to about 1.1 µM and inactive = higher.
Outcomes: active, inactive

- CC(=O)OC(/C=C1/C=CC(=O)O1)COC(=O)c1ccccc1 (stereo unspecified): inactive
- COc1ccc(/C=C\c2cc(OC)c(OC)c(OC)c2)cc1: active
- COc1ccc(/C=N/N=C(\N)NO)cc1F: inactive
- CN1C(=O)c2ccccc2NC(=O)c2cnn(C)c21: inactive
- COc1ccccc1C12OC(=O)C1(C)Oc1ccccc1C2=O (stereo unspecified): inactive
- CCC(=O)Nc1nc2c(ncn2C2OC(COC(=O)CC)C(OC(=O)CC)C2OC(=O)CC)c(=O)[nH]1 (stereo unspecified): inactive
- NNC(=O)CCC(=O)NC1C2CC3CC(C2)CC1C3 (stereo unspecified): inactive
- COc1ccc(-n2cnnc2-c2nsc3ccccc23)cc1: inactive
- CC1=C(c2nc3ccccc3s2)C(=O)OC1(C)C: inactive
- CC(=O)OCC1OC(OC2CC3C(C)(C)C(OC(C)=O)CC[C@]3(C)C3CCC45CC4(CC[C@H]5C(C)CC(O)[C@@H](O)C(C)(C)O)[C@]23C)C(O)C(O)C1O (stereo partly specified): inactive
- Cc1cc([N+](=O)[O-])ccc1Sc1c2ccccc2nc2cc(Cl)ccc12: inactive
- Nc1ccn(C2OC(COP(=O)(O)Oc3ccccc3)C(O)C2O)c(=O)n1 (stereo unspecified): inactive
- CC1(C)OC(=O)C(=C2CCC(C(=O)Nc3cccc(C(F)(F)F)c3)N2)C(=O)O1 (stereo unspecified): inactive
- O=C(CCc1nnc(S)[nH]1)NC12CC3CC(CC(C3)C1)C2: inactive
- Nc1ccc(C(=O)N/C(=C\c2ccc3c(c2)OCO3)c2nc3ccccc3s2)cc1: inactive
- CCOC(=O)C(=O)Nc1c(C)cccc1C: inactive
- COc1ccc(/C=C2\SC(c3ccc(OC)cc3)N(NC(=O)Cc3ccccc3)C2=O)cc1 (stereo unspecified): inactive
- CCC(/C(=N/NC(=O)C[N+](C)(C)C)c1ccccc1)C1OC(=O)c2ccccc21 (stereo unspecified): inactive
- CC1(C)C(=O)C(=Cc2ccco2)C1=O: inactive
- O=[N+]([O-])c1ccc2nc(/C(=N/Nc3ccccc3)C(O)c3ccc(C(O)/C(=N\Nc4ccccc4)c4nc5ccc([N+](=O)[O-])cc5nc4O)cc3)cnc2c1 (stereo unspecified): inactive
- FC(F)(F)c1ccc(C2SCc3nc4ccccc4n32)cc1 (stereo unspecified): inactive

* * *

System: A549
Experiment: NCI tumour cell line growth inhibition, 48 h
Calls of active or inactive are those of the source. Rule as the data show it: active = GI50 up to about 1.1 µM and inactive = higher.
quantity: GI50

* O=c1c2cc(Br)ccc2[nH]c(=S)n1-c1ccc(Br)cc1 | > 100 µM (inactive)
* O=C(O)CSc1ccn(Cc2ccccc2)c1 | > 100 µM (inactive)
* C=CCCCC12CCCc3cccc(c31)NC2=O (stereo unspecified) | 20.2 µM (inactive)
* O=C(O)CSc1nnc(-c2ccc(O)cc2)[nH]1 | > 100 µM (inactive)
* COc1ccc2c(c1)[C@@]13CCCC[C@H]1[C@@H](C2)N(C)CC3=O | 19.9 µM (inactive)
* OC[C@H](O)[C@@H](OCc1ccccc1)[C@H](NCc1ccccc1)c1cccs1 | > 100 µM (inactive)

* * *

Test system: SK-OV-3
Assay: NCI tumour cell line growth inhibition, 48 h
Calls of active or inactive are those of the source. Rule as the data show it: active = GI50 up to about 1.1 µM and inactive = higher.
quantity: GI50

* Cc1ccc(/N=N\c2c(O)ccc3cc(S(=O)(=O)O)ccc23)cc1 | > 100 µM (inactive)
* CC(C)C(=O)CC(Sc1ccc(N)cc1)c1ccccc1 (centres undefined) | 26.4 µM (inactive)
* COc1ccccc1C12OC(=O)C1(C)Oc1ccccc1C2=O (centres undefined) | > 100 µM (inactive)
* O=C1CC2SC(COCc3ccccc3)(CCN2Cc2ccccc2)C1 (centres undefined) | > 100 µM (inactive)
* CC1=C(/C=C/C(C)=C/C=C/C(C)=C/C=C/C=C(C)/C=C/C=C(C)/C=C/C2=C(C)C(=O)C(O)CC2(C)C)C(C)(C)CC(O)C1=O (centres undefined) | > 100 µM (inactive)
* Cc1ccsc1C(=S)Nc1ccc(Cl)c(C(=O)OC(C(C)C)C(C)C)c1 | 28.2 µM (inactive)
* CCOC(=O)/C(Br)=C1\OC(=O)c2ccccc2-c2ccccc21 | 34 µM (inactive)
* CCCCCCCCCCNC(=O)CCC(NC(=O)c1ccc(N(C)Cc2cnc3nc(N)nc(N)c3n2)cc1)C(=O)NCCCCCCCCCC (centres undefined) | 27.8 µM (inactive)
* COc1cc([C@@H]2c3cc4c(cc3[C@@H](NCCNCCO)[C@H]3COC(=O)[C@H]23)OCO4)cc(OC)c1O | 1.78 µM (inactive)
